Every entry's value here was drawn from ChEMBL document CHEMBL4387763.

compounds and their reported pIC50
# target_under_test: Induced myeloid leukemia cell differentiation protein Mcl-1 (Homo sapiens)
# Sequence (Q07820 whole entry, the tested form may be a part): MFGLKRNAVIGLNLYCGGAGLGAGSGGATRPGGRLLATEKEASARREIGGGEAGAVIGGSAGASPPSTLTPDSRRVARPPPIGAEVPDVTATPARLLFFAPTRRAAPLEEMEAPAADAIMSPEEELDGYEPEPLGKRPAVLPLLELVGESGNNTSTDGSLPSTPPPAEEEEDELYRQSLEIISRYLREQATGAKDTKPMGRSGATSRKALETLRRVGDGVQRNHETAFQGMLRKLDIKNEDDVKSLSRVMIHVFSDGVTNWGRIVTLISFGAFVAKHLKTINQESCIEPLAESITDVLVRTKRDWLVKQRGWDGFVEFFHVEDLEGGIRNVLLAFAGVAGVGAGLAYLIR
# method_description: Inhibition of […]-labelled BID binding to human MCl-1 (171 to 327 residues) expressed in Escherichia coli BL21 (DE3) by fluorescence polarization assay
pIC50: −log10 of the molar value.
outcome_measure: pIC50

compound_smiles | result_qualifier | reading
Cc1cc(C(=O)NCc2nnn[nH]2)sc1S(=O)(=O)Nc1cc(C(F)(F)F)ccc1Cl | = | 6.38
Cc1cc(C(=O)N[C@H](CCc2ccccc2)C(=O)O)sc1S(=O)(=O)Nc1cc(C(F)(F)F)ccc1Cl | = | 6.09
Cc1cc(C(=O)N[C@H](C)C(=O)O)sc1S(=O)(=O)Nc1cc(C(F)(F)F)ccc1Cl | = | 5.82
O=S(=O)(Nc1cccc(C(F)(F)F)c1)c1cc(Cl)ccc1Cl | < | 4.60
Cc1cc(C(=O)NC(Cc2ccccc2)Cc2ccccc2)sc1S(=O)(=O)Nc1cc(C(F)(F)F)ccc1Cl | = | 5.15
